test system: U2OS; test: Multiplex assay against U2OS; type: toxicity, cell-based; conditions: human, 24 h, 1 µM, compound concentration 1 uM, replicate 2
readout-type: Population Mitotic Cells (%)
# number only, unit % dropped from output

Look over these answered cases.
COc1cc(Nc2ncc3c(n2)-c2ccc(Cl)cc2C(c2c(F)cccc2OC)=NC3)ccc1C(=O)O	25
CN1CCC(C(=O)c2cccc(NC(=O)c3c(F)cc(F)cc3F)n2)CC1	27
C=CCN1C[C@H](C(=O)N(CCCN(C)C)C(=O)NCC)C[C@@H]2c3cccc4[nH]cc(c34)C[C@H]21	35
COCCn1c(C)c(C)s/c1=N\C(=O)C1C(C)(C)C1(C)C	16
CN1CCN(c2ccc(Nc3c4ccccc4nc4ccccc34)cc2)CC1.Cl.Cl.O	0
Cc1c(Cc2ccc3ccccc3n2)c2cc(F)ccc2n1CC(=O)O	0

Input line: Read off the recorded Population Mitotic Cells (%) for S=C(NCCCc1c[nH]cn1)NCCCN(Cc1ccc(Cl)c(Cl)c1)c1ccc(Br)cn1
Output line: 0

Input line: // fetch Population Mitotic Cells (%) given entry C[C@@H]1CC(=O)Nc2cccc(-c3ccc4c(c3)c(-c3cnn(C)c3)nn4C)c2N1
Output line: 0
